Hey, just so you know, these numbers are from ChEMBL document CHEMBL5344441.

target.entity: UniProt:P11712
Sequence (P11712 whole entry): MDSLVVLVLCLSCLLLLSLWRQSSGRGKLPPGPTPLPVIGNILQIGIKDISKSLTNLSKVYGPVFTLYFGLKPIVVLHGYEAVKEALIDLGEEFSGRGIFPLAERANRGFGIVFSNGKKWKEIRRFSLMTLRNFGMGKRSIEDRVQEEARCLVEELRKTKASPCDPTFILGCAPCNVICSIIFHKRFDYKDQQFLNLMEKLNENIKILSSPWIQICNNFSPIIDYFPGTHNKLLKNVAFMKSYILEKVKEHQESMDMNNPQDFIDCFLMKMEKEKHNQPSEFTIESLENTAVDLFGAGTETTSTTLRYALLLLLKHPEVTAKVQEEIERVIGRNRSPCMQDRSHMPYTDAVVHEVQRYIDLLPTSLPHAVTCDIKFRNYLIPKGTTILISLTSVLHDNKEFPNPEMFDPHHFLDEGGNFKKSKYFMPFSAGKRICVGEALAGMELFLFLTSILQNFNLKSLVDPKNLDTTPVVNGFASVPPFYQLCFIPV
pIC50: −log10 of the molar value.
assay.endpoint: pIC50

molecule	assay.endpoint	result
NC(=O)c1ncc(N2CCCCC2)nc1Nc1ccc(C2CCN(C[C@H]3CCN(c4ccc5c(c4)C(=O)N(C4CCC(=O)NC4=O)C5=O)C3)CC2)cc1 (stereo partly specified) [ZELEBRUDOMIDE]	pIC50	< 4.52

====

target.entity: Tyrosine-protein kinase BTK (Homo sapiens)
Sequence (Q06187 whole entry): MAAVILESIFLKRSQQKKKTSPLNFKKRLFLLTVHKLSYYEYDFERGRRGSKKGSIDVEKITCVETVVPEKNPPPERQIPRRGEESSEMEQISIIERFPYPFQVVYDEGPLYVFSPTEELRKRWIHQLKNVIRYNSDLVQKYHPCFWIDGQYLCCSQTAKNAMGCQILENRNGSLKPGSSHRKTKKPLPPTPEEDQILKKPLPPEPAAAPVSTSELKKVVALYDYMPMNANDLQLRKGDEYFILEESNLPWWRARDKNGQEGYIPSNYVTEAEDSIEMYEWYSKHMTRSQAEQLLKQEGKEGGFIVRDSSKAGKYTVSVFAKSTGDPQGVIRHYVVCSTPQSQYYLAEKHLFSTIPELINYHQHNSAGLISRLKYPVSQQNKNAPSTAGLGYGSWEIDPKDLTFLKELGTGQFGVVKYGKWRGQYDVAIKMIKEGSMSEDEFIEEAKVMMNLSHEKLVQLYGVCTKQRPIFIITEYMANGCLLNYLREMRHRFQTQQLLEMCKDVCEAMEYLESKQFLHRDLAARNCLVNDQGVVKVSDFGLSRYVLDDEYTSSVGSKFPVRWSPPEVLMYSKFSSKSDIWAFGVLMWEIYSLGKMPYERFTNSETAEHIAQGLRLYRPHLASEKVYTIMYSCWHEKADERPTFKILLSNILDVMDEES
method.notes: Binding affinity to BTK (unknown origin) assessed as dissociation constant by surface plasmon resonance assay
pKd: −log10 of the molar value.
assay.endpoint: pKd

compound	result
NC(=O)c1ncc(N2CCCCC2)nc1Nc1ccc(C2CCN(C[C@H]3CCN(c4ccc5c(c4)C(=O)N(C4CCC(=O)NC4=O)C5=O)C3)CC2)cc1 (stereo partly specified) [ZELEBRUDOMIDE]	7.35

====

method.notes: Oral bioavailability in dog at 10 mg/kg
Type: ADME, organism-based, Canis lupus familiaris
test.conditions: in vivo

compound	units.of.measure	bioavailability
NC(=O)c1ncc(N2CCCCC2)nc1Nc1ccc(C2CCN(C[C@H]3CCN(c4ccc5c(c4)C(=O)N(C4CCC(=O)NC4=O)C5=O)C3)CC2)cc1 (stereo partly specified) [ZELEBRUDOMIDE]	%	1

====

method.notes: Ratio of drug concentration in mouse blood to plasma
Type: ADME, cell-free
test.conditions: whole blood
assay.endpoint: blood plasma ratio

compound	result
CN1CCN([C@@H]2CCCN(c3cnc(C(N)=O)c(Nc4ccc(C5CCN(C[C@H]6CCN(c7ccc8c(c7)C(=O)N(C7CCC(=O)NC7=O)C8=O)C6)CC5)cc4)n3)C2)C1=O (stereo partly specified)	1.1

====

target.entity: Protein cereblon/Zinc finger protein Aiolos (Homo sapiens, UniProt Q96SW2+Q9UKT9)
method.notes: PROTAC activity at CRBN/IKZF3 in human T cell assessed as maximal degradation of IKZF3 protein incubated for 24 hrs by flow cytometry relative to control
Assay type: cell-based
Sequence (Q96SW2 whole entry, looked up): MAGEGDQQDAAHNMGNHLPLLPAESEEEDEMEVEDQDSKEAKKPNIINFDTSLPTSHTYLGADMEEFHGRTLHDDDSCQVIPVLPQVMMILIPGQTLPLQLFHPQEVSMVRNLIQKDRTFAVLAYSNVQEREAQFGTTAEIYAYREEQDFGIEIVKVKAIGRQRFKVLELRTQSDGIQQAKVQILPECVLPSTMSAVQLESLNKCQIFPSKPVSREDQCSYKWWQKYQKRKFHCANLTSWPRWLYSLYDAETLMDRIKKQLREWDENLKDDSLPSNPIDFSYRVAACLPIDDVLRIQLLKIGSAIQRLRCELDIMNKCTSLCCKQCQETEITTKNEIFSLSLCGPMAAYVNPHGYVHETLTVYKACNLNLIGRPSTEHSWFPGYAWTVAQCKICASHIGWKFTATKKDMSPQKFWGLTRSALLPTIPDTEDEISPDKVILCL
Sequence (Q9UKT9 whole entry, looked up): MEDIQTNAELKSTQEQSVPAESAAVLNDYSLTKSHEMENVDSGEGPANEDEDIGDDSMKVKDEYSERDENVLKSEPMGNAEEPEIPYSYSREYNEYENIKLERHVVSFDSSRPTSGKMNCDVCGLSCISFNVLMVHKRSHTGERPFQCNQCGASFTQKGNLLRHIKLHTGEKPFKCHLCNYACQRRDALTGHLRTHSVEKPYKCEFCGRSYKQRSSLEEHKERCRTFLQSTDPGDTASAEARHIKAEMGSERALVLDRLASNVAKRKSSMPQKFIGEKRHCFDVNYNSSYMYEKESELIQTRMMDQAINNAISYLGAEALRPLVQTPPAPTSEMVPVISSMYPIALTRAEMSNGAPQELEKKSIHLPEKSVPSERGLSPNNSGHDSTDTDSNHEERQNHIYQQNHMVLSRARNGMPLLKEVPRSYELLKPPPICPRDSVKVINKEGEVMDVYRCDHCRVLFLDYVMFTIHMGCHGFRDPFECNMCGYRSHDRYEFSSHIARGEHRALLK

compound	units.of.measure	Emax
CN1CCN([C@@H]2CCCN(c3cnc(C(N)=O)c(Nc4ccc(C5CCN(CCCNc6cccc7c6C(=O)N(C6CCC(=O)NC6=O)C7=O)CC5)cc4)n3)C2)C1=O (stereo partly specified)	%	87
CN1CCN([C@@H]2CCCN(c3cnc(C(N)=O)c(Nc4ccc(C5CCN(C[C@H]6CC[C@H](Nc7cccc8c7C(=O)N(C7CCC(=O)NC7=O)C8=O)CC6)CC5)cc4)n3)C2)C1=O (stereo partly specified)	%	85
CN1CCN([C@@H]2CCCN(c3cnc(C(N)=O)c(Nc4ccc(C5CCN(C6CN(c7ccc8c(c7)C(=O)N(C7CCC(=O)NC7=O)C8=O)C6)CC5)cc4)n3)C2)C1=O (stereo partly specified)	%	74
CN1CCN([C@@H]2CCCN(c3cnc(C(N)=O)c(Nc4ccc5c(c4)CCN(CC4CCN(c6ccc7c(c6)C(=O)N(C6CCC(=O)NC6=O)C7=O)CC4)C5)n3)C2)C1=O (stereo partly specified)	%	86
CN1CCN([C@@H]2CCCN(c3cnc(C(N)=O)c(Nc4ccc(C5CCN(C[C@H]6CCN(c7ccc8c(c7)C(=O)N(C7CCC(=O)NC7=O)C8=O)C6)CC5)cc4)n3)C2)C1=O (stereo partly specified)	%	79
CN1CCN([C@@H]2CCCN(c3cnc(C(N)=O)c(Nc4ccc(N5CC6(C5)CN(c5ccc7c(c5)C(=O)N(C5CCC(=O)NC5=O)C7=O)C6)cc4)n3)C2)C1=O (stereo partly specified)	%	83

====

Quick reference for Emax among some molecules
target.entity: Protein cereblon/Tyrosine-protein kinase BTK (Homo sapiens, UniProt Q06187+Q96SW2)
method.notes: PROTAC activity at CRBN/BTK in human TMD8 cells assessed as maximal degradation of BTK protein incubated for 4 hrs by HTRF assay relative to control
Type: cell-based
Sequence (Q06187 2-659 limits assumed): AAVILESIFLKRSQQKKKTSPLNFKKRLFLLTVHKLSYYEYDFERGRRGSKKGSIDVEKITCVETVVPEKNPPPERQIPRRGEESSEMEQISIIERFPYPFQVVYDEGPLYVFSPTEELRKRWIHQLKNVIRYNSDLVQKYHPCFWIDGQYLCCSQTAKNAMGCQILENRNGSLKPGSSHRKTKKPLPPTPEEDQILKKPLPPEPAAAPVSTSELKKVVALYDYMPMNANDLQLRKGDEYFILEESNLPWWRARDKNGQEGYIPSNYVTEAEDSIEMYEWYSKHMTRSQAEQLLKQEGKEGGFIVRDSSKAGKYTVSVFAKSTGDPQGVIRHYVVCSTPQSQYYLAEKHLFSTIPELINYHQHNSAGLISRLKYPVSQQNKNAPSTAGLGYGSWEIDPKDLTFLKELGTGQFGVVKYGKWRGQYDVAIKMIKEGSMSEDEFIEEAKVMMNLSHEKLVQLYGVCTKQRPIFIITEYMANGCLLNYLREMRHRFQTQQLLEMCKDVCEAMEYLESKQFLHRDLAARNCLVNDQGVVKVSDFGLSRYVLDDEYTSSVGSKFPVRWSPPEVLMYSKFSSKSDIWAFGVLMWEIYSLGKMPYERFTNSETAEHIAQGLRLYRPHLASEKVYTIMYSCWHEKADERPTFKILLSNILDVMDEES
Sequence (Q96SW2 whole entry partner): as the sequence (Q96SW2 whole entry, looked up) above

molecule	Emax
CN1CCN([C@@H]2CCCN(c3cnc(C(N)=O)c(Nc4ccc(C5CCN(Cc6ccc7c(c6)C(=O)N(C6CCC(=O)NC6=O)C7=O)CC5)cc4)n3)C2)C1=O (some centres undefined)	76%
NC(=O)c1ncc(N2CCCCC2)nc1Nc1ccc(C2CCN(C[C@H]3CCN(c4ccc5c(c4)C(=O)N(C4CCC(=O)NC4=O)C5=O)C3)CC2)cc1 (some centres undefined) [ZELEBRUDOMIDE]	94%
CN1CCN([C@@H]2CCCN(c3cnc(C(N)=O)c(Nc4ccc(N5CC6(C5)CN(c5ccc7c(c5)C(=O)N(C5CCC(=O)NC5=O)C7=O)C6)cc4)n3)C2)C1=O (some centres undefined)	97%
CN1CCN([C@@H]2CCCN(c3cnc(C(N)=O)c(Nc4ccc(C5CN(C6CCN(c7ccc8c(c7)C(=O)N(C7CCC(=O)NC7=O)C8=O)CC6)C5)cc4)n3)C2)C1=O (some centres undefined)	96%

====

method.notes: Ratio of drug concentration in rat blood to plasma
Assay type: ADME, cell-free
test.conditions: whole blood

molecule	blood plasma ratio
CN1CCN([C@@H]2CCCN(c3cnc(C(N)=O)c(Nc4ccc(C5CCN(C[C@H]6CCN(c7ccc8c(c7)C(=O)N(C7CCC(=O)NC7=O)C8=O)C6)CC5)cc4)n3)C2)C1=O (stereo partly specified)	1.3

====

method.notes: Plasma protein binding in dog
Format: ADME, cell-free, Canis lupus familiaris
test.conditions: read-out: PPB (converted)
assay.endpoint: fraction unbound

compound	assay.endpoint	result
CN1CCN([C@@H]2CCCN(c3cnc(C(N)=O)c(Nc4ccc(C5CCN(C[C@H]6CCN(c7ccc8c(c7)C(=O)N(C7CCC(=O)NC7=O)C8=O)C6)CC5)cc4)n3)C2)C1=O (some centres not stated)	fraction unbound	0.031
NC(=O)c1ncc(N2CCCCC2)nc1Nc1ccc(C2CCN(C[C@H]3CCN(c4ccc5c(c4)C(=O)N(C4CCC(=O)NC4=O)C5=O)C3)CC2)cc1 (some centres not stated) [ZELEBRUDOMIDE]	fraction unbound	0.025

====

method.notes: Efflux ratio of apparent permeability in human Caco-2 cells
Format: ADME, cell-based

compound	efflux ratio
CN1CCN([C@@H]2CCCN(c3cnc(C(N)=O)c(Nc4ccc(C5CCN(C[C@H]6CCN(c7ccc8c(c7)C(=O)N(C7CCC(=O)NC7=O)C8=O)C6)CC5)cc4)n3)C2)C1=O (stereo partly specified)	> 84

====

target.entity: Protein cereblon/Tyrosine-protein kinase BTK (Homo sapiens, UniProt Q06187+Q96SW2)
method.notes: PROTAC activity at CRBN/BTK in human Ramos cells assessed as degradation of BTK protein incubated for 4 hrs by HTRF assay
Assay type: cell-based
Sequence (Q06187 whole entry): as the sequence (Q06187 whole entry) above
Sequence (Q96SW2 whole entry): as the sequence (Q96SW2 whole entry, looked up) above
Quick reference for DC50 among some compounds
assay.endpoint: DC50 (nM)

compound	assay.endpoint	units.of.measure	result
Cn1cc(-c2ccnc(-n3ncc4cc(C(C)(C)C)cc(F)c4c3=O)c2CO)cc(Nc2cc3n(n2)CCN(C(=O)CCOCCCc2cccc4c2CN(C2CCC(=O)NC2=O)C4=O)C3)c1=O (stereo unspecified)	DC50	nM	50
CN1CCN([C@@H]2CCCN(c3cnc(C(N)=O)c(Nc4ccc(C5CN(C6CCN(c7ccc8c(c7)C(=O)N(C7CCC(=O)NC7=O)C8=O)CC6)C5)cc4)n3)C2)C1=O (stereo partly specified)	DC50	nM	0.9
Nc1ncnc2c1c(-c1ccc(Oc3ccccc3)cc1)nn2C1CCN(C(=O)CCOCCOCCOCCOCCOCCNc2cccc3c2C(=O)N(C2CCC(=O)NC2=O)C3=O)CC1 (stereo unspecified)	DC50	nM	32
CN1CCN([C@@H]2CCCN(c3cnc(C(N)=O)c(Nc4ccc(N5CCC6(CC5)CCN(c5ccc7c(c5)C(=O)N(C5CCC(=O)NC5=O)C7=O)CC6)cc4)n3)C2)C1=O (stereo partly specified)	DC50	nM	0.9
CN1CCN([C@@H]2CCCN(c3cnc(C(N)=O)c(Nc4ccc(N5CC6(C5)CN(c5ccc7c(c5)C(=O)N(C5CCC(=O)NC5=O)C7=O)C6)cc4)n3)C2)C1=O (stereo partly specified)	DC50	nM	0.9
CN1CCN([C@@H]2CCCN(c3cnc(C(N)=O)c(Nc4ccc(C5CCN(CC6CN(c7ccc8c(c7)C(=O)N(C7CCC(=O)NC7=O)C8=O)C6)CC5)cc4)n3)C2)C1=O (stereo partly specified)	DC50	nM	0.8

====

method.notes: AUClast in cynomolgus monkey at 10 mg/kg,po administration for 14 days
Assay type: ADME, organism-based, Macaca fascicularis
Design: time 14 day, dose 10 mg/kg, route po
test.conditions: in vivo

compound	units.of.measure	AUC(0-t) at 336 h
NC(=O)c1ncc(N2CCCCC2)nc1Nc1ccc(C2CCN(C[C@H]3CCN(c4ccc5c(c4)C(=O)N(C4CCC(=O)NC4=O)C5=O)C3)CC2)cc1 (stereo partly specified) [ZELEBRUDOMIDE]	ng·h/mL	366

====

target.entity: Protein cereblon/Zinc finger protein Aiolos (Homo sapiens, UniProt Q96SW2+Q9UKT9)
method.notes: PROTAC activity at CRBN/IKZF3 in human T cell assessed as degradation of IKZF3 protein incubated for 24 hrs by flow cytometry
Assay type: cell-based
Sequence (Q96SW2 whole entry): as the sequence (Q96SW2 whole entry, looked up) above
Sequence (Q9UKT9 whole entry): as the sequence (Q9UKT9 whole entry, looked up) above
Quick reference for DC50 among some compounds

compound	DC50 (nM)
CN1CCN([C@@H]2CCCN(c3cnc(C(N)=O)c(Nc4ccc(C5CCN(C6CN(c7ccc8c(c7)C(=O)N(C7CCC(=O)NC7=O)C8=O)C6)CC5)cc4)n3)C2)C1=O (stereo partly drawn)	32
CN1CCN([C@@H]2CCCN(c3cnc(C(N)=O)c(Nc4ccc(C5CN(C6CCN(c7ccc8c(c7)C(=O)N(C7CCC(=O)NC7=O)C8=O)CC6)C5)cc4)n3)C2)C1=O (stereo partly drawn)	28
CN1CCN([C@@H]2CCCN(c3cnc(C(N)=O)c(Nc4ccc(C5CCN(CCCNc6cccc7c6C(=O)N(C6CCC(=O)NC6=O)C7=O)CC5)cc4)n3)C2)C1=O (stereo partly drawn)	11
